Target: CIRBP; further: reference of the scale not given here
Assay: pooled miR-30 sensor sort-seq; sequence = guide strand
Conditions: shRNA
QUANTITY_NAME: sensor-assay potency score (higher = more potent)
Lab note: record the figure alone, no unit after it.

INPUT: Fill in: sensor-assay potency score (higher = more potent) of TAGCGTCGTCAATGTTCTCAAA is ___
OUTPUT: -1.03

INPUT: Recorded sensor-assay potency score (higher = more potent) of TTCAGAGATCTGTCCGTACTTT , please.
OUTPUT: 0.15

INPUT: Bench note: what sensor-assay potency score (higher = more potent) did TAACTGTCTCTGTAGGACCCGC show?
OUTPUT: -0.935

INPUT: I would be grateful if you could share the reported sensor-assay potency score (higher = more potent) for TCCGTACTTTGAGAAGACCTGC .
OUTPUT: -0.634

INPUT: Requested read-out: sensor-assay potency score (higher = more potent). Entry: TCACTGTAGCCACCACTCTGAC
OUTPUT: -1.45

INPUT: Which sensor-assay potency score (higher = more potent) reading was recorded for the sequence TTGGTGTCAAAACTCAGCCCTC ?
OUTPUT: -0.687

INPUT: Quick check: sensor-assay potency score (higher = more potent) of TATAGTAGTCTCTGGAGCCTCC ?
OUTPUT: -0.259

INPUT: Bench note: what sensor-assay potency score (higher = more potent) did TTTCACAACCACCACTTCAGAG show?
OUTPUT: -0.729

INPUT: Fill in: sensor-assay potency score (higher = more potent) of TTGCCTGCCTGGTCTACTCGGA is ___
OUTPUT: -0.263

INPUT: Look up sensor-assay potency score (higher = more potent) for this sequence: TCTTTCACAACCACCACTTCAG
OUTPUT: -0.118

INPUT: Param item = TAACTGTCGTAACTGTCTCTGT ; retrieve measured sensor-assay potency score (higher = more potent).
OUTPUT: 0.0429
